# System name: Epidermal growth factor receptor (Homo sapiens)
# Sequence (P00533 whole entry): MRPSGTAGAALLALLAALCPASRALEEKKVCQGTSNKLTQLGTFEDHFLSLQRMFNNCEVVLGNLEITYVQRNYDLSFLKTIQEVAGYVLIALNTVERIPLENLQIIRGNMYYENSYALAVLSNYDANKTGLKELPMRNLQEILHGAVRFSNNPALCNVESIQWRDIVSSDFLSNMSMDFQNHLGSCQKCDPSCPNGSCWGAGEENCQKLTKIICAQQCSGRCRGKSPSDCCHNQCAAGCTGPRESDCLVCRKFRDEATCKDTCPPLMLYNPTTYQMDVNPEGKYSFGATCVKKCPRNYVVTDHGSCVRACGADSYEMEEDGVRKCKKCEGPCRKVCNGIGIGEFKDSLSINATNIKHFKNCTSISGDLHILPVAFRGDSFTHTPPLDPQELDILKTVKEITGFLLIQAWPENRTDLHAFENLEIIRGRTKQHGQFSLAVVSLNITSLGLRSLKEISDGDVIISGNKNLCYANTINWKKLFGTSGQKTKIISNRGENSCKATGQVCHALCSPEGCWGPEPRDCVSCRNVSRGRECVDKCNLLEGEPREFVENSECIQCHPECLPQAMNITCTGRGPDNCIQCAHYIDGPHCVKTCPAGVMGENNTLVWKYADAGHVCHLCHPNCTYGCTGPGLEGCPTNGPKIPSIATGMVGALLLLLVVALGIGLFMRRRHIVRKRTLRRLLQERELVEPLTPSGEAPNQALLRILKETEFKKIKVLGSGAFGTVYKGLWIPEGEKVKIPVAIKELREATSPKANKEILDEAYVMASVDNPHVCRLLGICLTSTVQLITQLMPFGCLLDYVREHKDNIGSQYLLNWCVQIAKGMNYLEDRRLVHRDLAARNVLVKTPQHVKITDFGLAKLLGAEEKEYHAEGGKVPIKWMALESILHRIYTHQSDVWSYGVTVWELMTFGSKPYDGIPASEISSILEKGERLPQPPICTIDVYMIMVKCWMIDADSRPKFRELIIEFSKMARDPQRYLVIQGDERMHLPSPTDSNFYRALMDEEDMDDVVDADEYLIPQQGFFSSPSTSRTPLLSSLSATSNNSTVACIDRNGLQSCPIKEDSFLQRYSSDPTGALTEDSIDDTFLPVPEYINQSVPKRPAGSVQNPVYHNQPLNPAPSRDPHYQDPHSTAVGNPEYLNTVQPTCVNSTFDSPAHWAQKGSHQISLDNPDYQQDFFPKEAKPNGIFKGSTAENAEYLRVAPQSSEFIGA
# Experiment description: DRUGMATRIX: Protein Tyrosine Kinase, EGF Receptor enzyme inhibition (substrate: Poly(Glu:Tyr))
# Type: cell-based, Insect cells
# Stated conditions: insect cells; Not Active = under 50% inhibition at 10 µM
Recorded endpoint: IC50

Below: 4 compounds and their reported IC50.
Per the records, this compound ( N[C@H](CSC(=S)NCc1ccccc1)C(=O)O ) has IC50 equal to Not Active

Per the records, this compound ( CCCC(CCC)C(=O)O [VALPROIC ACID] ) has IC50 equal to Not Active

Per the records, this compound ( Cc1cc(C)nc(NS(=O)(=O)c2ccc(N)cc2)n1 [SULFAMETHAZINE] ) has IC50 equal to Not Active

Per the records, this compound ( CCOC(=O)C1=C(C)NC(C)=C(C(=O)OC)C1c1cccc([N+](=O)[O-])c1 (stereo not given) [NITRENDIPINE] ) has IC50 equal to Not Active

Let us examine a further case.
Per the records, this compound ( C[C@]12CC[C@@H]3c4ccc(O)cc4CC[C@H]3[C@@H]1CC[C@@H]2O [ESTRADIOL] ) has IC50 equal to Not Active

----------
# Experiment description: DRUGMATRIX: Calcium Channel Type L, Phenylalkylamine radioligand binding (ligand: [3H] (-)-Desmethoxyverapamil (D-888))
# Assay type: cell membranes, Rattus norvegicus, Wistar, Brain, Membrane
# Stated conditions: Not Active = under 50% inhibition at 10 µM
Recorded endpoint: Ki

Per the records, this compound ( CC(=O)N[C@@H]1[C@H](Oc2c3cc4cc2Oc2ccc(cc2Cl)[C@@H](O[C@@H]2O[C@@H](CO)[C@@H](O)[C@H](O)[C@@H]2NC(C)=O)[C@@H]2NC(=O)[C@H](NC(=O)[C@@H]4NC(=O)[C@H]4NC(=O)[C@@H](Cc5ccc(c(Cl)c5)O3)NC(=O)[C@H](N)c3ccc(O)c(c3)Oc3cc(O)cc4c3)c3ccc(O)c(c3)-c3c(O[C@H]4O[C@H](CO)[C@@H](O)[C@@H](O)[C@@H]4O)cc(O)cc3[C@@H](C(=O)O)NC2=O)O[C@@H](CO)[C@@H](O)[C@@H]1O ) has Ki equal to Not Active

Per the records, this compound ( CO[C@H]1/C=C/O[C@@]2(C)Oc3c(C)c(O)c4c(c3C2=O)C2=NC3(CCN(CC(C)C)CC3)NC2=C(NC(=O)/C(C)=C\C=C\[C@H](C)[C@H](O)[C@@H](C)[C@@H](O)[C@@H](C)[C@H](OC(C)=O)[C@@H]1C)C4=O [RIFABUTIN] ) has Ki equal to Not Active

Per the records, this compound ( CC(=O)Nc1cccc(O)c1 [METACETAMOL] ) has Ki equal to Not Active

----------
# System name: Alpha-1A adrenergic receptor (Rattus norvegicus)
# Sequence (P43140 whole entry): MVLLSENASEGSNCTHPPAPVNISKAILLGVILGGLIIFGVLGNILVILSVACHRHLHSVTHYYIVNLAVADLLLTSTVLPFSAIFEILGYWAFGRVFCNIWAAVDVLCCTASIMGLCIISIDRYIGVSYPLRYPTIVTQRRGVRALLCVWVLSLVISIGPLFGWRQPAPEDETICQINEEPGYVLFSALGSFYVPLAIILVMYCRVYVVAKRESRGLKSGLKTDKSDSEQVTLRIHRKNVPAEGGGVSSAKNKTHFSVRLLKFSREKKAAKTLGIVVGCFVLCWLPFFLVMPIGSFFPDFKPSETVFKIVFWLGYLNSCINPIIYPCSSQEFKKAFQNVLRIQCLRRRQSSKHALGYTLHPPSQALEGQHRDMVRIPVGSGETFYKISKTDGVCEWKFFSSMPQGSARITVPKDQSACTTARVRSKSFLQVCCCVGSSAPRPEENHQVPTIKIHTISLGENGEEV
# Experiment description: DRUGMATRIX: Alpha-1A adrenergic receptor radioligand binding (ligand: prazosin)
# Type: cell membranes, Wistar, Submaxillary gland, Membrane
# Stated conditions: Not Active = under 50% inhibition at 10 µM
Recorded endpoint: IC50

Below: 7 compounds and their reported IC50.
Per the records, this compound ( CC1(C)O[C@@H]2C[C@H]3[C@@H]4C[C@H](F)C5=CC(=O)CC[C@]5(C)[C@H]4[C@@H](O)C[C@]3(C)[C@]2(C(=O)CO)O1 [FLURANDRENOLIDE] ) has IC50 equal to Not Active

Per the records, this compound ( COc1cc(NS(=O)(=O)c2ccc(N)cc2)nc(OC)n1 [SULFADIMETHOXINE] ) has IC50 equal to Not Active

Per the records, this compound ( COc1cccc2c1C(=O)c1c(O)c3c(c(O)c1C2=O)C[C@@](O)(C(=O)CO)C[C@@H]3O[C@H]1C[C@H](N)[C@H](O)[C@H](C)O1 [DOXORUBICIN] ) has IC50 equal to Not Active

Per the records, this compound ( CC(C)CC(N(C)C)C1(c2ccc(Cl)cc2)CCC1 (stereo not drawn) [SIBUTRAMINE] ) has IC50 equal to Not Active

Per the records, this compound ( OC(CCN1CCCCC1)(c1ccccc1)C1CCCCC1 (stereo not drawn) [TRIHEXYPHENIDYL] ) has IC50 equal to Not Active

Per the records, this compound ( O=S(=O)([O-])CCS.[Na+] [MESNA] ) has IC50 equal to Not Active

Per the records, this compound ( Cc1cc(C)nc(NS(=O)(=O)c2ccc(N)cc2)n1 [SULFAMETHAZINE] ) has IC50 equal to Not Active

Let us examine a further case.
Per the records, this compound ( C[C@]1(Cn2ccnn2)[C@H](C(=O)O)N2C(=O)C[C@H]2S1(=O)=O [TAZOBACTAM] ) has IC50 equal to Not Active
